System: pressor response to AII
RUN_DESCRIPTION: Assay C: In Vivo Intragastric Pressor Assay Response for AII Antagonists
RECORDED_CONDITIONS: rat, 3 mg/kg intragastric (i.g.), inhibition of pressor response to 30 ng/kg AII bolus
Listed next: entries and their corresponding Assay C Inhibition (%).
Value expressed in %; do not type the unit.

Consider the reported Assay C Inhibition (%) for these compounds:
CCCCc1cn(-c2ccccc2C(C)C)c(=O)n1Cc1ccc(-c2ccccc2-c2nnn[nH]2)cc1: 70
CCCCc1cn(-c2c(C)cc(C)cc2C)c(=O)n1Cc1ccc(-c2ccccc2-c2nnn[nH]2)cc1: 50
CCCCc1cn(-c2c(OC)cccc2OC)c(=O)n1Cc1ccc(-c2ccccc2-c2nnn[nH]2)cc1: 25
CCCCc1cn(-c2c(C)cccc2C)c(=O)n1Cc1ccc(-c2ccccc2-c2nnn[nH]2)cc1: 40

// below: Assay C Inhibition (%) requested for another compound
Quick one: give measured Assay C Inhibition (%) for CCCCc1cn(-c2c(C)cccc2Cl)c(=O)n1Cc1ccc(-c2ccccc2-c2nnn[nH]2)cc1
35

----------
MEASURED_ATTRIBUTE: melting point

Consider the reported melting point for these molecules:
CCCCc1cn(-c2ccccc2CC)c(=O)n1Cc1ccc(-c2ccccc2-c2nnn[nH]2)cc1: 188 to 189 °C
CCCCc1cn(-c2c(C)cccc2Cl)c(=O)n1Cc1ccc(-c2ccccc2-c2nnn[nH]2)cc1: 163 to 164 °C

Quick one: give measured melting point for CCCCc1cn(-c2ccccc2C(C)C)c(=O)n1Cc1ccc(-c2ccccc2-c2nnn[nH]2)cc1
167 to 168 °C

Quick one: give measured melting point for CCCCc1cn(-c2c(C)cccc2C)c(=O)n1Cc1ccc(-c2ccccc2-c2nnn[nH]2)cc1
177 to 178 °C (dec.)

Quick one: give measured melting point for CCCCc1cn(-c2c(CC)cccc2CC)c(=O)n1Cc1ccc(-c2ccccc2-c2nnn[nH]2)cc1
198 to 200 °C (dec.)

----------
Listed next: entries and their corresponding melting point.

CCCCc1cn(-c2c(OC)cccc2OC)c(=O)n1Cc1ccc(-c2ccccc2-c2nnn[nH]2)cc1: 189 to 191 °C (dec.)
CCCCc1cn(-c2c(C(C)C)cccc2C(C)C)c(=O)n1Cc1ccc(-c2ccccc2-c2nnn[nH]2)cc1: 202 to 203 °C (dec.)
CCCCc1cn(-c2c(C)cc(C)cc2C)c(=O)n1Cc1ccc(-c2ccccc2-c2nnn[nH]2)cc1: 187 to 188 °C (dec.)

Quick one: give measured melting point for CCCCc1cn(-c2c(C)cc(C(C)(C)C)cc2C)c(=O)n1Cc1ccc(-c2ccccc2-c2nnn[nH]2)cc1
134 to 135 °C
